Where these numbers come from: ChEMBL document CHEMBL1148617

TARGET: Adenosine receptor A2b (Homo sapiens)
TEST SUMMARY: Displacement of [3H]DPCPX from recombinant human adenosine A2B receptor expressed in HEK293 cells at 0.1 uM
Assay type: cell-based
MEASURED ENDPOINT: inhibition (%)

Form entry - test system: Adenosine receptor A2b (Homo sapiens); read-out: inhibition; compound: Cn1c(=O)c2[nH]c(-c3ccc(OCC(=O)Nc4nc5ccccc5[nH]4)cc3)cc2n(C)c1=O
80

Form entry - test system: Adenosine receptor A2b (Homo sapiens); read-out: inhibition; compound: CCCn1c(=O)c2[nH]c(-c3ccc(OCC(=O)Nc4ncccc4O)cc3)cc2n(CCC)c1=O
82

Form entry - test system: Adenosine receptor A2b (Homo sapiens); read-out: inhibition; compound: CCCn1c(=O)c2[nH]c(-c3ccc(OCC(=O)Nc4ccc(Br)cc4)cc3Cl)cc2n(CCC)c1=O
79

Form entry - test system: Adenosine receptor A2b (Homo sapiens); read-out: inhibition; compound: CCCn1c(=O)c2[nH]c(-c3ccc(OCC(=O)Nc4ccc(I)cc4)cc3)cc2n(CCC)c1=O
80

---

TARGET: Adenosine receptor A2b (Homo sapiens)
Sequence (whole entry): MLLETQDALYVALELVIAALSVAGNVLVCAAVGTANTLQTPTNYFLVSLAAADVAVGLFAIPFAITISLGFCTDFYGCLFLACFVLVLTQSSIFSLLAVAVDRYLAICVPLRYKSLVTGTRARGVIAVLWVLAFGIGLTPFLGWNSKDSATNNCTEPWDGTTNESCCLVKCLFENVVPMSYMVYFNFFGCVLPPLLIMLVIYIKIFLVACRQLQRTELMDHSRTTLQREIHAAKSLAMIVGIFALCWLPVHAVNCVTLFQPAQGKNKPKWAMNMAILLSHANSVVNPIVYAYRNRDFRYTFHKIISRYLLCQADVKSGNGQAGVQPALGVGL
TEST SUMMARY: Displacement of [3H]DPCPX from recombinant human adenosine A2B receptor expressed in HEK293 cells at 0.01 uM
MEASURED ENDPOINT: inhibition (%)

(A) CCCn1c(=O)c2[nH]c(-c3ccc(OCC(=O)Nc4ccccc4)cc3)cc2n(CCC)c1=O
(B) CCCn1c(=O)c2[nH]c(-c3ccc(OCC(=O)Nc4ccc(S(=O)(=O)c5ccccc5)cc4)cc3)cc2n(CCC)c1=O
(C) CC(NC(=O)COc1ccc(-c2cc3c([nH]2)c(=O)n(C)c(=O)n3C)cc1)c1ccccc1 (stereo not drawn)
Task for the reader: rank each entry by its inhibition, from the minimum upward. List each label, following the requested order.
B, C, A

---

TARGET: Adenosine receptor A2b (Homo sapiens)
TEST SUMMARY: Displacement of [3H]DPCPX from recombinant human adenosine A2B receptor expressed in HEK293 cells at 0.1 uM
Format: cell-based
MEASURED ENDPOINT: inhibition (%)

What value of inhibition has been recorded for this entry: CCCn1c(=O)c2[nH]c(-c3ccc(OCC(=O)Nc4ccc(F)cc4)cc3OC)cc2n(CCC)c1=O
27

(a) CCCn1c(=O)c2[nH]c(-c3ccc(N(C=O)CC(=O)Nc4ccccc4)cc3)cc2n(CCC)c1=O
(b) CCCn1c(=O)c2[nH]c(-c3ccc(OCC(=O)Nc4ccc(Br)cc4)cc3)cc2n(CCC)c1=O
(c) Cn1c(=O)c2[nH]c(-c3ccc(OCC(=O)NCc4ccccc4)cc3)cc2n(C)c1=O
# desc sort on inhibition across 3 compounds List each label, following the requested order.
b, c, a

(a) CCn1c(=O)c2[nH]c(-c3ccc(OCC(=O)Nc4ccc(C#N)cc4)cc3)cc2n(CC)c1=O
(b) Cn1c(=O)c2[nH]c(-c3ccc(OCC(=O)O)cc3)cc2n(CCN2CCOCC2)c1=O
Field: lower inhibition | Options: a / b Your answer should be the label attached to the chosen record.
b
(b: 18%, a: 79%)
